# target or system: capsaicin receptor (rat DRG membranes) (Rattus norvegicus)
# Sequence (O35433 whole entry): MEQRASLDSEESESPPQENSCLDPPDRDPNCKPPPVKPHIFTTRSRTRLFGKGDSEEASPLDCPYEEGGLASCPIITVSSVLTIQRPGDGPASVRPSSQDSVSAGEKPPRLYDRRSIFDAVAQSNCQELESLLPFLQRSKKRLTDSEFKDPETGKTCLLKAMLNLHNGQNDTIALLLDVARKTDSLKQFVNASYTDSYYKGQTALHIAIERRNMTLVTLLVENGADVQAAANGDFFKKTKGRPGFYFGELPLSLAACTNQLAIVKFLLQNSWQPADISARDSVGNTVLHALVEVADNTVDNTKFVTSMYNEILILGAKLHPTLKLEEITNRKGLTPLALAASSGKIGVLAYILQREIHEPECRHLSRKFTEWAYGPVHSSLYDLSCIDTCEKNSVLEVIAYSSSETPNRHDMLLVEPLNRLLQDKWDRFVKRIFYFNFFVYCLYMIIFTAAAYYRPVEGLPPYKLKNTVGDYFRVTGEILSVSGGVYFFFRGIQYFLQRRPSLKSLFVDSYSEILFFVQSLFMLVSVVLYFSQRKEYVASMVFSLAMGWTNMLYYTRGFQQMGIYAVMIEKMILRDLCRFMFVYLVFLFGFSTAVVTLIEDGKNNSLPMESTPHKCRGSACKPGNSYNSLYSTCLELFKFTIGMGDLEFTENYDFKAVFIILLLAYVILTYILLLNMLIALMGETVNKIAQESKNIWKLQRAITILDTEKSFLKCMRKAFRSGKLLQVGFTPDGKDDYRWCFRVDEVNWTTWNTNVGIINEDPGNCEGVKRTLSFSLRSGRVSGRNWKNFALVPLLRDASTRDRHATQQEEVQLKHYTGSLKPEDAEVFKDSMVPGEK

[
  {
    "smiles representation": "C=C(C)[C@]12C[C@@H](C)[C@@]34O[C@](Cc5ccccc5)(O[C@@H]1[C@@H]3C=C(COC(=O)Cc1ccc(O)c(OC)c1)C[C@]1(O)C(=O)C(C)=C[C@@H]41)O2",
    "Ki (nM)": 0.11
  }
]

---

# target or system: capsaicin receptor (pig DRG membranes) (Sus scrofa)
# Construct: tissue Mt; Airy Locker Co., Mt; Airy, MD; host or cells: pig dorsal root ganglia
# Sequence (F1RLJ0 1-841): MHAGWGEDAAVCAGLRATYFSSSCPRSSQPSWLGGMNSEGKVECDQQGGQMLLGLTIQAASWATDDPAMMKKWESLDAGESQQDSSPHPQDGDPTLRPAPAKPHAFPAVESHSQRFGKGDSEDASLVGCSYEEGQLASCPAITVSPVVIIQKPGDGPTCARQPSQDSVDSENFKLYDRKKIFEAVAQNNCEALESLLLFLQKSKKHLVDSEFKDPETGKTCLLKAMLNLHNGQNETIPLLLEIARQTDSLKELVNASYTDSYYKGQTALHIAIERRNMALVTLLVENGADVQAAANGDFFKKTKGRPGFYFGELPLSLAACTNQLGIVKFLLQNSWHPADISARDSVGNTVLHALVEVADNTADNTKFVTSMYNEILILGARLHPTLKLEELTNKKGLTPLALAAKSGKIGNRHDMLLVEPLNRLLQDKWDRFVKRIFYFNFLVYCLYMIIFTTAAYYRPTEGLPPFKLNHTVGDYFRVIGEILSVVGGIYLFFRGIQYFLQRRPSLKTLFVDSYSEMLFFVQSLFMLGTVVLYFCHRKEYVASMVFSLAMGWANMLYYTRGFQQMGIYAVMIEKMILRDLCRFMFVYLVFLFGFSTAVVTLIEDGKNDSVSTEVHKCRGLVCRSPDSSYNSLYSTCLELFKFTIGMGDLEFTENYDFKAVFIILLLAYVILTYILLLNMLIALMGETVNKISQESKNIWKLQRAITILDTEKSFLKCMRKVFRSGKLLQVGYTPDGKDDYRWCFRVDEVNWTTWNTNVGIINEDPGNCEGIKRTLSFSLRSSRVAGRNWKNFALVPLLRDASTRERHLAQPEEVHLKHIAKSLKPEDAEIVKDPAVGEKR
# assay notes: biochemical
# Assay type: binding
observation type: Ki (µM)

[
  {
    "smiles representation": "COc1cc(CNC(=O)CCCC/C=C/C(C)C)ccc1O",
    "value observed": 14
  }
]

---

# target or system: capsaicin receptor (pig DRG membranes) (Sus scrofa)
# Construct: tissue Mt; Airy Locker Co., Mt; Airy, MD; host or cells: pig dorsal root ganglia
# assay notes: biochemical
# Format: binding
# measurement conditions: pig DRG; one site model; read-out: Ki (LIGAND analysis)

[
  {
    "smiles representation": "C=C(C)[C@]12C[C@@H](C)[C@@]34O[C@](Cc5ccccc5)(O[C@@H]1[C@@H]3C=C(COC(=O)Cc1ccc(O)c(OC)c1)C[C@]1(O)C(=O)C(C)=C[C@@H]41)O2",
    "u": "nM",
    "Ki": 2.2
  }
]
